The reported numbers originate from ChEMBL document CHEMBL1124816.

# target-of-assay: Cyclooxygenase (Homo sapiens, UniProt P35354+P23219)
# assay-comment: Inhibition of human platelet Prostaglandin G/H synthase
Exercise: state measured IC50 for each of the compounds provided.

Ask | Give its IC50 value. Item: Cc1cc(CCC(=O)c2ccc(F)cc2)cc(C)c1O
Reply | < 10000 nM

Ask | Give its IC50 value. Item: CCc1cc(/C=C/c2cccnc2)cc(CC)c1O
Reply | < 10000 nM

Ask | Give its IC50 value. Item: CC(C)(C)c1cc(/C=C2\CCOC2=O)cc(C(C)(C)C)c1O
Reply | 110 nM

Ask | Give its IC50 value. Item: Cc1cc(/C=C/c2cccs2)cc(Cl)c1O
Reply | 230 nM

Ask | Give its IC50 value. Item: CCc1ccc(/C=C/c2cc(C)c(O)c(C)c2)cc1
Reply | 510 nM

Ask | Give its IC50 value. Item: Cc1ccc(C)c(/C=C/c2cc(C)c(O)c(C)c2)c1
Reply | 1300 nM
